Where do the numbers come from? From paper PMC3319149.

Each item that follows carries a reported Ki.
molecular target: ASBT (Homo sapiens, UniProt Q12908); assay: Taurocholate uptake inhibition study in ASBT-MDCK monolayers; type: cell-based; conditions: read-out: Ki (μM) ASBT, inhibition of [3H]-taurocholate uptake (2.5 μM cold TCA), 10 min, 37 °C
Sequence (Q12908 whole entry): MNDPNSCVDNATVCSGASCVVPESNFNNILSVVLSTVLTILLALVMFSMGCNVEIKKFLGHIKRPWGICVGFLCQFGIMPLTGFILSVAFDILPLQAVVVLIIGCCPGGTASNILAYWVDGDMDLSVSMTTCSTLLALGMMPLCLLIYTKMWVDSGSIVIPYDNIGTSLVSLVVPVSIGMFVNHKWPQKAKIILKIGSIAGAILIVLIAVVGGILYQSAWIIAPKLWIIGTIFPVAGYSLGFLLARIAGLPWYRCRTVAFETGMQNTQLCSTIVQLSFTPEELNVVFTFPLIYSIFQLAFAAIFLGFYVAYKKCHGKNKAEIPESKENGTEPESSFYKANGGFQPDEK
Write the value in µM as a bare number.

Documented Ki of COC(=O)CC[C@@H](C)[C@H]1CC[C@H]2[C@@H]3[C@@H](O)C[C@@H]4C[C@H](O)CC[C@]4(C)[C@H]3CC[C@]12C [Compound 16, methyl ursodeoxycholate] : 29.8

Documented Ki of C[C@H](CCC(=O)O)[C@H]1CC[C@H]2[C@@H]3[C@@H](OC(=O)c4ccc(F)cc4)C[C@@H]4C[C@H](O)CC[C@]4(C)[C@H]3CC[C@]12C [Compound 3, 7-(4-fluorobenzoyloxy) ursodeoxycholate] : 10.3

Documented Ki of C[C@H](CCC(=O)NCC(=O)O)[C@H]1CC[C@H]2[C@@H]3[C@H](O)C[C@H]4C[C@H](OC(=O)c5cccnc5)CC[C@]4(C)[C@H]3CC[C@]12C [Compound 10, 3-nicotinoyl glycochenodeoxycholate] : 6.45

New cases:
Documented Ki of C[C@H](CCC(=O)NCC(=O)O)[C@H]1CC[C@H]2[C@@H]3[C@@H](OC(=O)c4cccnc4)C[C@@H]4C[C@H](O)CC[C@]4(C)[C@H]3CC[C@]12C [Compound 8, 7-nicotinoyl glycoursodeoxycholate] : 15.2
